Where do the numbers come from? From ChEMBL document CHEMBL2163314.

# Tested On: Lysosomal acid glucosylceramidase (Homo sapiens)
# Sequence (P04062 whole entry): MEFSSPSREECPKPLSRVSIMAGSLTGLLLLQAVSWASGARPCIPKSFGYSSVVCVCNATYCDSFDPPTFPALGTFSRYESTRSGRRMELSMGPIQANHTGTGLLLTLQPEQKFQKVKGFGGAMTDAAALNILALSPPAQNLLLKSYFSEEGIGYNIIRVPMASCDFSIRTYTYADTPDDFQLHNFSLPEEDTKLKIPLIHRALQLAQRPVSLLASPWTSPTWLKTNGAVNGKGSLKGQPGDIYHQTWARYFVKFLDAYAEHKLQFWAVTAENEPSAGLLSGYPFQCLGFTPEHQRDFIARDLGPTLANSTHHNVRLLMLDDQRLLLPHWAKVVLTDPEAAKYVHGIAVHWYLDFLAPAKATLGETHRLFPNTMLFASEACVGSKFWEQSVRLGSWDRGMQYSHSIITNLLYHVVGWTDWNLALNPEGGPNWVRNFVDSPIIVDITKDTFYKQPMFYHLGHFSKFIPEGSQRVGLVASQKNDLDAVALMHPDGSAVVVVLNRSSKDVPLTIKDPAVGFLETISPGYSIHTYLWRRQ
# Assay Text: Binding affinity to recombinant imiglucerase using 4-methylumbelliferyl-beta-D-glucopyranoside as substrate preincubated for 30 mins before substrate addition by Lineweaver-Burk plot assay
Measurement Type: Ki (nM)
Numbers only; they are read as nM.

1) CCCCCCCCCN[C@H]1[C@H](O)[C@@H](O)[C@H](O)[C@@H](O)[C@H]1OCCCCCCCCC.Cl : 1

Given item CCCCCCCCCN[C@H]1[C@H](O)[C@@H](O)[C@H](O)[C@@H](O)[C@@H]1OC.Cl , the value recorded as its Ki is 1580

Given item CCCCCCCCCN[C@@H]1[C@H](O)[C@@H](O)[C@H](O)[C@@H](O)[C@@H]1O , the value recorded as its Ki is 17900

Given item CCCCCCCCCN[C@H]1[C@H](O)[C@@H](O)[C@H](O)[C@@H](O)[C@@H]1O , the value recorded as its Ki is 1900

Given item CCCCCCCCCN[C@H]1[C@H](O)[C@@H](O)[C@H](O)[C@@H](O)[C@H]1OC.Cl , the value recorded as its Ki is 53

Given item CCCCCCCCCN[C@H]1[C@H](O)[C@@H](O)[C@H](O)[C@@H](O)[C@@H]1OCCCCCCCCC.Cl , the value recorded as its Ki is 280
